All figures here come from patent US20100144645A1.

Listing of entries alongside the reported IN Cmax %.
test: Intranasal bioavailability of hydromorphone conjugates; details: rats, corrected value calculated based on the control (HM)
readoutLabel: IN Cmax % (%)

{"columns": ["compound", "readoutLabel", "unitTag", "dataValue"],
 "data": [
  ["CC[C@H](C)[C@H](NC(=O)[C@H](Cc1ccccc1)NC(=O)[C@@H](N)Cc1ccccc1)C(=O)OC1=CC[C@H]2[C@H]3Cc4ccc(O)c5c4[C@@]2(CCN3C)[C@H]1O5", "IN Cmax %", "%", 92],
  ["CC[C@H](C)[C@H](NC(=O)[C@H](CCC(=O)O)NC(=O)[C@@H](N)CCC(=O)O)C(=O)OC1=CC[C@H]2[C@H]3Cc4ccc(O)c5c4[C@@]2(CCN3C)[C@H]1O5", "IN Cmax %", "%", 88],
  ["CC(C)[C@H](NC(=O)[C@H](CCCCN)NC(=O)[C@@H](N)CCCCN)C(=O)OC1=CCC2[C@H]3Cc4ccc(O)c5c4[C@@]2(CCN3C)C1O5 (stereo partly drawn)", "IN Cmax %", "%", 89]
]}

====

Listing of entries alongside the reported stability 90 C., 20 min BP.
test: stability 90 C., 20 min (V, BP, TW, BS) of hydrocodone conjugates; details: BP (abbreviation not defined)
Residues, ends and D or L forms follow the SMILES beside them. *: point of attachment. X1 = COc1ccc2c3c1OC1C(O*)=CCC4[C@@H](C2)N(C)CC[C@]314

{"columns": ["compound", "stability 90 C., 20 min BP"],
 "data": [
  ["CC[C@H](C)[C@H](NC(=O)[C@H](CCC(=O)O)NC(=O)[C@@H](N)CCC(=O)O)C(=O)OC1=CCC2[C@H]3Cc4ccc(OC)c5c4[C@@]2(CCN3C)C1O5 (stereo partly shown)", 94],
  ["CC[C@H](C)[C@H](NC(=O)[C@@H]1CCCN1C(=O)[C@@H]1CCCN1C(=O)[C@H](CCCCN)NC(=O)[C@@H](N)CCCCN)C(=O)OC1=CCC2[C@H]3Cc4ccc(OC)c5c4[C@@]2(CCN3C)C1O5 (stereo partly shown) [Lys2-Pro2-Ile-HC] (H-KKPPI-X1)", 72],
  ["CC[C@H](C)[C@H](NC(=O)[C@@H]1CCCN1)C(=O)N[C@H](C(=O)OC1=CCC2[C@H]3Cc4ccc(OC)c5c4[C@@]2(CCN3C)C1O5)[C@@H](C)CC (stereo partly shown)", 47],
  ["COc1ccc2c3c1OC1C(OC(=O)[C@H](Cc4ccccc4)NC(=O)CNC(=O)CNC(=O)[C@H](CCC(=O)O)NC(=O)[C@@H](N)CCC(=O)O)=CCC4[C@@H](C2)N(C)CC[C@]314 (stereo partly shown) [Glu2-Gly2-Phe-HC] (H-EEGGF-X1)", 100]
]}
